# Tested on: Escherichia coli TOP10
# protocolNotes: shrunken log2 fold change of peptide-encoding DNA abundance (4.5 h post-induction vs induction); higher = less antimicrobial activity (less host growth inhibition)
# testSettings: time post-induction: 4.5 h; library: site-saturation at positions 5, 18, 19, 20
measurementType: shrunken log2 fold change
Note: the reply should be a number with no unit written.

INSERT INTO measurements (itemsequence, observedmeasurement) VALUES
  ('RRIRMRPPRLPRPRPRPHPPPRP', 1.26);

Field: next sequence
Problem: Name the reported shrunken log2 fold change value associated with the sequence `RRIRYRPPRLPRPRPRPPQDPRP`
Result: -0.362

---

# System: Escherichia coli TOP10;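 note: peptides expressed intracellularly from a pBAD plasmid library in pooled LB shake-flask culture, induced with 0.3% L-arabinose, DNA abundance read by NGS, three biological replicates, DESeq2 with apeglm shrinkage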
# protocolNotes: shrunken log2 fold change of peptide-encoding DNA abundance (4.5 h post-induction vs induction); higher = less antimicrobial activity (less host growth inhibition)
# testSettings: time post-induction: 4.5 h; library: site-saturation at positions 5, 18, 19, 20
measurementType: shrunken log2 fold change

Problem: What measured shrunken log2 fold change goes with `RRIRMRPPRLPRPRPRPAAWPRP` ?
Result: 0.11

Problem: Now consider `RRIRIRPPRLPRPRPRPAMCPRP` .
Result: -0.182

Problem: How about this sequence: `RRIRERPPRLPRPRPRPLTFPRP`
Result: -0.693

Problem: Ok, now `RRIRNRPPRLPRPRPRPGHRPRP`
Result: 0.00909

Problem: And for `RRIRMRPPRLPRPRPRPEVAPRP` ?
Result: 3.75
